Assay Target: Solute carrier family 2, facilitated glucose transporter member 1 (Homo sapiens) (UniProt P11166)
Sequence (P11166 whole entry): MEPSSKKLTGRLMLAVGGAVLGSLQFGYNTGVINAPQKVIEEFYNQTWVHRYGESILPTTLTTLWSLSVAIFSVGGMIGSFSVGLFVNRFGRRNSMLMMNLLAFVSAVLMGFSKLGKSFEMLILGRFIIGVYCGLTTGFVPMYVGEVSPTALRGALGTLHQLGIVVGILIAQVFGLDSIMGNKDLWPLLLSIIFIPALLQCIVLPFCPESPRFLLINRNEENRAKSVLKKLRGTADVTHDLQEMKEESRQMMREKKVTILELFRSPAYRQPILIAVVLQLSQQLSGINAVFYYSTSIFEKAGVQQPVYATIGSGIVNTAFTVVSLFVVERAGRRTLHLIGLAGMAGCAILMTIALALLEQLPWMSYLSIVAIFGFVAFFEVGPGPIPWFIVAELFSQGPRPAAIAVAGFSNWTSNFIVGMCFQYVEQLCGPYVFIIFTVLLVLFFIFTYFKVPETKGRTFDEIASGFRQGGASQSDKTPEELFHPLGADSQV
Experiment Notes: ST_JUDE_LEISH: Cytotoxicity at 2uM final concentration against transgenic Leishmania Mexicana promastigotes LmGLUT1 that are glucose transport deficient and complemented with the human glucose transporter GLUT1. Activity is measured by DNA content using SYBR green in vitro
Format: functional
Reported Metric: inhibition (%)

[[record]]
compound = "O=C(Nc1cc(C(F)(F)F)cc(C(F)(F)F)c1)N1CCC(CN2CCC(c3c[nH]c4ccccc34)CC2)CC1"
reported_metric = "inhibition"
reported = 2.61

[[record]]
compound = "CS(=O)(=O)Nc1ccc2[nH]cc(C3CCN(CC4CCC(NC(=O)/C=C/c5ccccc5Cl)CC4)CC3)c2c1 (centres undefined)"
reported_metric = "inhibition"
reported = -1.96

[[record]]
compound = "C/C=C1\\CN2CC[C@H]1C[C@@H]2[C@@H](O)c1ccnc2ccc(O)cc12"
reported_metric = "inhibition"
reported = 2.02

[[record]]
compound = "COc1ccc(OC)c(C(O)C(C)NCc2cc(Cl)ccc2O)c1 (centres undefined)"
reported_metric = "inhibition"
reported = 0.78

[[record]]
compound = "Cc1[nH]c2ccccc2c1C1=CCN(CCCCC23CCCc4cccc(c42)NC3=O)CC1 (centres undefined)"
reported_metric = "inhibition"
reported = 2.64

[[record]]
compound = "NCc1ccc(-c2ccccc2CN(C(=O)Nc2ccccc2)C2CCN(Cc3ccccc3)CC2)cc1"
reported_metric = "inhibition"
reported = 2.32

[[record]]
compound = "S=C(Nc1ccccc1Cl)NC1CCC(CN2CCC(c3c[nH]c4ccccc34)CC2)CC1 (centres undefined)"
reported_metric = "inhibition"
reported = 5.7

[[record]]
compound = "COC(=O)c1ccc(CC(C)NCC(O)c2cccc(Cl)c2Cl)cc1 (centres undefined)"
reported_metric = "inhibition"
reported = 3.29

[[record]]
compound = "CN1CC=C(c2csc3ccc(NC(=O)Nc4ccc(-c5ccncc5)c(Cl)c4)cc23)CC1"
reported_metric = "inhibition"
reported = 0.03


---

Assay Target: Glucose transporter (Leishmania mexicana)
Experiment Notes: ST_JUDE_LEISH: Cytotoxicity at 2uM final concentration against transgenic Leishmania Mexicana promastigotes LmGT2 that are glucose transport deficient and complemented with the L. Mexicana glucose transporter 2. Activity is measured by DNA content using SYBR green in vitro
Type: functional
Reported Metric: inhibition (%)

[[record]]
molecule = "Cc1[nH]c2cc(F)ccc2c1C1=CCN(CCCCC2(C)C(=O)Nc3c(F)cccc32)CC1 (stereo not given)"
unit_spec = "%"
reported = 4.44

[[record]]
molecule = "O=C(Nc1ccc(CN2CCC(c3c[nH]c4ccc(O)cc34)CC2)cc1)c1ccc(-c2ccccc2)cc1"
unit_spec = "%"
reported = 5.18

[[record]]
molecule = "CCN1CC=C(c2c[nH]c3ccccc23)CC1"
unit_spec = "%"
reported = 0.73

[[record]]
molecule = "O=C(/C=C/c1ccc(Cl)c(Cl)c1)NC1CCC(N2CCC(c3c[nH]c4ccc(O)cc34)CC2)CC1 (stereo not given)"
unit_spec = "%"
reported = 2.5

[[record]]
molecule = "Cc1cc(N)nc2cc(CNCCc3ccccc3Br)ccc12"
unit_spec = "%"
reported = -0.67

[[record]]
molecule = "Cc1ccc2c(C3=CCN(CCCCC4(C)C(=O)Nc5ccccc54)CC3)c(C)[nH]c2c1 (stereo not given)"
unit_spec = "%"
reported = -0.56

[[record]]
molecule = "CC(Cc1ccc(OCc2ccccc2)cc1)NCC(O)c1cccc(Cl)c1 (stereo not given)"
unit_spec = "%"
reported = 4.23

[[record]]
molecule = "COc1ccccc1CC(C)NCC(O)c1cccc(Cl)c1 (stereo not given)"
unit_spec = "%"
reported = 1.87

[[record]]
molecule = "CNCCN(C)C(=O)Oc1c(Cl)c(C)nc(C)c1-c1ccc(Oc2ccc(OC(F)(F)F)cc2)cc1"
unit_spec = "%"
reported = 4.28

[[record]]
molecule = "N=C(N)NC(=O)Nc1ccc([N+](=O)[O-])c(Cl)c1"
unit_spec = "%"
reported = 0.59


---

Assay Target: Hexose transporter 1 (Plasmodium falciparum) (UniProt O97467)
Experiment Notes: ST_JUDE_LEISH: Cytotoxicity at 2uM final concentration against transgenic Leishmania Mexicana promastigotes LmPfHT that are glucose transport deficient and complemented with the Plasmodium falciparum hexose transporter. Activity is measured by DNA content using SYBR green in vitro
Type: functional
inhibition listing for selected compounds.
Reported Metric: inhibition

[[record]]
compound = "CC(C)CNCc1cccc(-c2ccc(CN(C(=O)NC3CCCCC3)C3CCN(Cc4ccccc4)CC3)cc2)c1"
assay_target = "Hexose transporter 1 (Plasmodium falciparum) (UniProt O97467)"
reported_metric = "inhibition"
reported = "5.99%"

[[record]]
compound = "O=C(C=Cc1ccccc1O)N1CCC(CN2CCC(c3c[nH]c4ccccc34)CC2)CC1"
assay_target = "Hexose transporter 1 (Plasmodium falciparum) (UniProt O97467)"
reported_metric = "inhibition"
reported = "2.2%"

[[record]]
compound = "O=C(NC1CCC(CN2CCC(c3c[nH]c4ccccc34)CC2)CC1)c1csc(-c2cccc(Cl)c2Cl)n1 (centres undefined)"
assay_target = "Hexose transporter 1 (Plasmodium falciparum) (UniProt O97467)"
reported_metric = "inhibition"
reported = "4.16%"

[[record]]
compound = "CC[C@H]1CN2CC[C@H]1C[C@H]2[C@H](O)c1cc(-c2cccc(F)c2)nc2ccc(OC)cc12"
assay_target = "Hexose transporter 1 (Plasmodium falciparum) (UniProt O97467)"
reported_metric = "inhibition"
reported = "7.25%"

[[record]]
compound = "O=S(=O)(NC1CCC(CN2CCC(c3c[nH]c4ccccc34)CC2)CC1)c1ccc(Cl)c(Cl)c1 (centres undefined)"
assay_target = "Hexose transporter 1 (Plasmodium falciparum) (UniProt O97467)"
reported_metric = "inhibition"
reported = "-1.92%"

[[record]]
compound = "C1=C(c2c[nH]c3ccccc23)CCN(Cc2ccccc2)C1"
assay_target = "Hexose transporter 1 (Plasmodium falciparum) (UniProt O97467)"
reported_metric = "inhibition"
reported = "0.32%"

[[record]]
compound = "O=C(CSc1ccc(Cl)cc1)NC1CCC(CN2CCC(c3c[nH]c4ccccc34)CC2)CC1 (centres undefined)"
assay_target = "Hexose transporter 1 (Plasmodium falciparum) (UniProt O97467)"
reported_metric = "inhibition"
reported = "1.76%"

[[record]]
compound = "CN(c1cc(NC(=O)c2ccccc2)ccn1)C1CCN(Cc2cccc(F)c2)CC1"
assay_target = "Hexose transporter 1 (Plasmodium falciparum) (UniProt O97467)"
reported_metric = "inhibition"
reported = "4.2%"

[[record]]
compound = "O=C(Nc1cc(C(F)(F)F)cc(C(F)(F)F)c1)N1CCC(CN2CCC(c3c[nH]c4ccccc34)CC2)CC1"
assay_target = "Hexose transporter 1 (Plasmodium falciparum) (UniProt O97467)"
reported_metric = "inhibition"
reported = "3.46%"


---

Assay Target: Hexose transporter 1 (Plasmodium falciparum)
Experiment Notes: ST_JUDE_LEISH: Cytotoxicity at 2uM final concentration against transgenic Leishmania Mexicana promastigotes LmPfHT that are glucose transport deficient and complemented with the Plasmodium falciparum hexose transporter. Activity is measured by DNA content using SYBR green in vitro
Type: functional
Reported Metric: inhibition (%)

[[record]]
molecule = "CCCc1c(C(=O)NC2CCC(CN3CCC(c4c[nH]c5ccccc45)CC3)CC2)cnn1-c1ccccc1 (configuration not stated)"
reported = 1.15

[[record]]
molecule = "CC(Cc1ccc(NC(=O)CCCc2ccccc2)cc1)NCCc1cccc(Cl)c1 (configuration not stated)"
reported = 0.72

[[record]]
molecule = "Cc1[nH]c2ccccc2c1C1=CCN(CCCCC2(C)C(=O)Nc3ccccc32)CC1 (configuration not stated)"
reported = 2.07

[[record]]
molecule = "N#Cc1c(F)cc(N2CCC(NCC[C@H](N)Cc3ccc(F)c(F)c3)CC2)cc1F"
reported = 3.63

[[record]]
molecule = "CCN(Cc1ccccc1)CC(O)c1ccc(Cl)c(Cl)c1 (configuration not stated)"
reported = 0.62

[[record]]
molecule = "CC(Cc1ccc(NC(=O)[C@@H](C)NCCc2cccc(Cl)c2)cc1)NCCc1cccc(Cl)c1 (some centres not stated)"
reported = 2.55

[[record]]
molecule = "Oc1ccc2[nH]cc(C3=CCN(CCc4ccccc4)CC3)c2c1"
reported = 18.1

[[record]]
molecule = "CC(=O)C1(c2ccccc2)CCN(CCC(NC(=O)c2cc(C(F)(F)F)cc(C(F)(F)F)c2)c2ccc(Cl)c(Cl)c2)CC1 (configuration not stated)"
reported = 0.71

[[record]]
molecule = "O=C(/C=C/c1ccccc1Cl)NC1CCC(CN2C3CCC2CC(c2c[nH]c4ccccc24)C3)CC1 (configuration not stated)"
reported = -0.31

[[record]]
molecule = "CC[C@H]1CN2CC[C@H]1C[C@H]2[C@@H](O)c1cc(OCCCN(C)C)nc2ccc(OC)cc12"
reported = -1.68

[[record]]
molecule = "O=C(/C=C/c1ccc(Cl)c(Cl)c1)NCCCCCN1C2CCC1CC(c1c[nH]c3ccccc13)C2 (configuration not stated)"
reported = 1.9

[[record]]
molecule = "Cc1ccc2c(C3=CCN(CCCCC4(C)C(=O)Nc5c(F)cccc54)CC3)c(C)[nH]c2c1 (configuration not stated)"
reported = 1.48

[[record]]
molecule = "O=C(NC1CCC(CN2CCC(c3c[nH]c4ccccc34)CC2)CC1)C1(O)c2ccccc2-c2ccccc21 (configuration not stated)"
reported = 2.05

[[record]]
molecule = "COc1ccc(C2CNCc3c2cc(OC)c(OC)c3Cl)cc1 (configuration not stated)"
reported = 4.69

[[record]]
molecule = "O=C(/C=C/c1ccc(Cl)c(Cl)c1)N1CCC(CN2C3CCC2CC(c2c[nH]c4ccccc24)C3)CC1 (configuration not stated)"
reported = 1.51

[[record]]
molecule = "CN(C)CCCn1cc(C(=O)OC2CC3CCC(C2)N3C)c2cc(-c3ccccc3)ccc21 (configuration not stated)"
reported = 6.68

[[record]]
molecule = "CC(C)CNCc1ccc(-c2cccc(CN(C(=O)CCC3CCCC3)C3CCN(Cc4ccccc4)CC3)c2)cc1"
reported = 12.3

[[record]]
molecule = "O=C(/C=C/c1ccc(Cl)c(Cl)c1)N1CCC(CN2CCC(c3c[nH]c4ccc(NS(=O)(=O)c5cccs5)cc34)CC2)CC1"
reported = 5.86

[[record]]
molecule = "Cc1[nH]c2c(C)cc(NS(C)(=O)=O)cc2c1C1CCN(CC2CCN(C(=O)/C=C/c3ccc(Cl)c(Cl)c3)CC2)CC1"
reported = 3.63

[[record]]
molecule = "Cc1[nH]c2ccc([N+](=O)[O-])cc2c1C1=CCN(C)CC1"
reported = 1.63

[[record]]
molecule = "COc1cccc(C2(NC[C@@H](O)[C@H](Cc3ccccc3)NC(=O)c3ccccc3)CCCCC2)c1"
reported = -1.37

[[record]]
molecule = "O=C(/C=C/c1cc([N+](=O)[O-])ccc1Cl)NC1CCC(CN2CCC(c3c[nH]c4ccccc34)CC2)CC1 (configuration not stated)"
reported = 1.69

[[record]]
molecule = "O=C(c1ccccc1)C1CC1CN1CC=C(c2c[nH]c3ccccc23)CC1 (configuration not stated)"
reported = 0.92

[[record]]
molecule = "O=C(C=Cc1ccc(F)c(Br)c1)N1CCC(CN2CCC(c3c[nH]c4ccccc34)CC2)CC1"
reported = 15.9

[[record]]
molecule = "FC(F)(F)c1ccc(NC(=S)N2CCC(CN3CCC(c4c[nH]c5ccccc45)CC3)CC2)cc1"
reported = -0.06

[[record]]
molecule = "CCN(CC)CCN1C(=O)C(O)(c2ccccc2Cl)c2c1cc(C#N)cc2C(F)(F)F (configuration not stated)"
reported = 2.02

[[record]]
molecule = "Cc1c2ccncc2c(C)c2c1[nH]c1ccccc12"
reported = 20.9

[[record]]
molecule = "OC1(c2ccc(Cl)c(C(F)(F)F)c2)CCN(CCOC2c3ccccc3CSc3ccc(Cl)cc32)CC1 (configuration not stated)"
reported = 1.04

[[record]]
molecule = "O=C(/C=C/c1ccc(Cl)c(Cl)c1)N1CCC(CN2CCC(c3c[nH]c4cc5c(cc34)OCO5)CC2)CC1"
reported = 4.93

[[record]]
molecule = "CC[C@H]1C[N+]2([O-])CC[C@@H]1C[C@H]2[C@H](O)c1cc(-c2ccccc2)nc2ccc(OC)cc12"
reported = 2.87

[[record]]
molecule = "NC1=NC2(CCCC2)N(c2ccc(Cl)cc2)C(N)=N1"
reported = 4.23

[[record]]
molecule = "OC(CNC1CCCCC1)c1ccc(Cl)c(Cl)c1 (configuration not stated)"
reported = -0.96

[[record]]
molecule = "Cc1ccc(CC(C)NCC(O)c2cccc(C#N)c2)cc1 (configuration not stated)"
reported = 13.4

[[record]]
molecule = "Cc1cccc2c(C3CCN(CC4CCC(NC(=O)/C=C/c5ccc(Cl)c(Cl)c5)CC4)CC3)c[nH]c12 (configuration not stated)"
reported = 9.79

[[record]]
molecule = "CC[C@H]1CN2CC[C@H]1C[C@H]2[C@H](O)c1ccnc2ccc(C#N)cc12"
reported = 1.86

[[record]]
molecule = "CNCCN(C)C(=O)Oc1c(Cl)c(C)nc(C)c1-c1ccc(Oc2ccc(OC(F)(F)F)cc2)cc1"
reported = 4.04

[[record]]
molecule = "Cc1ccc(CC(C)NCC(O)c2cccc(C(F)(F)F)c2)c(C)c1 (configuration not stated)"
reported = 0.6

